assay: Induction of nitric oxide release at 10^-4 M after 1 hr by Griess method relative to control; type: physicochemical; details: 100 µM
quantity_kind: Activity (%)
Answer with a number only, understood to be in %.

CC(C)Cc1ccc(C(C)c2n[nH]c(=S)n2-c2ccc(C(=O)NNC(=O)CCO[N+](=O)[O-])c(C(=O)NNC(=O)CCO[N+](=O)[O-])c2)cc1 (stereo unspecified) : 0.57
CC(C)Cc1ccc(C(C)c2n[nH]c(=S)n2-c2ccccc2CC(=O)NNC(=O)CCO[N+](=O)[O-])cc1 (stereo unspecified) : 0.32
CC(C)Cc1ccc(C(C)c2n[nH]c(=S)n2-c2ccc(C(=O)NNC(=O)CO[N+](=O)[O-])c(C(=O)NNC(=O)CO[N+](=O)[O-])c2)cc1 (stereo unspecified) : 0.42
CC(C)Cc1ccc(C(C)c2n[nH]c(=S)n2-c2ccc(C(=O)NNC(=O)CO[N+](=O)[O-])cc2)cc1 (stereo unspecified) : 0.48

Query block: Quick one: Activity of CC(C)Cc1ccc(C(C)c2n[nH]c(=S)n2-c2ccc(C(=O)NNC(=O)CCO[N+](=O)[O-])cc2)cc1 (stereo unspecified) ?
Result block: 0.39

Query block: Activity lookup needed for CC(C)Cc1ccc(C(C)c2n[nH]c(=S)n2-c2ccccc2CC(=O)NNC(=O)CO[N+](=O)[O-])cc1 (stereo unspecified) , thanks.
Result block: 0.35

Where do these numbers come from? They come from ChEMBL document CHEMBL3045521.
